Each entry below carries its reported T½.
- subject_of_test: T1, human BCMA (human, UniProt Q02223 1-54)
- T1 construct: also called huBCMA; hBCMA
- T1 sequence: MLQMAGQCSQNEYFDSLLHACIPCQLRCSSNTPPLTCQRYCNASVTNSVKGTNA
- method: SPR, immobilised IgG, 37° C
reported_metric: T½ (min)

binder	reported_metric	assay_result
L3.PY/L3.KF/H2.LT (antibody, V domains shown, IgG in the assay) VH: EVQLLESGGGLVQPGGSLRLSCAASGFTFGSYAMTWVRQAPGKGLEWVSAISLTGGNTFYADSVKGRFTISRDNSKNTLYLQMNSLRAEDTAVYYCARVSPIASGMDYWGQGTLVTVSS VL: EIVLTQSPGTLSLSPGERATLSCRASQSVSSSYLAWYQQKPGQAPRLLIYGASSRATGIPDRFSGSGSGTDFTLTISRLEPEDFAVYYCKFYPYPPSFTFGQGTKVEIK	T½	6.05
L3.PY/H3.YA (antibody, V domains shown, IgG in the assay) VH: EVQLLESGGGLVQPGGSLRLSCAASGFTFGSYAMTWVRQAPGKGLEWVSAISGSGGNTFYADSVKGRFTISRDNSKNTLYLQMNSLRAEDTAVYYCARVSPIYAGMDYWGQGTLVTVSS VL: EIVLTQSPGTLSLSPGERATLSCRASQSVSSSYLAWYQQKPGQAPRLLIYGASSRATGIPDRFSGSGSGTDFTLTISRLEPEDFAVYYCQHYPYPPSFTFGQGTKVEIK	T½	9.82
